Target: glucosylceramide synthase (GCS) (Canis lupus familiaris)
Construct: Madin-Darby canine kidney (MDCK) cell homogenates (120 μg of protein) were incubated; endogenous in cells
Sequence (A0A8I3MXG6 1-394): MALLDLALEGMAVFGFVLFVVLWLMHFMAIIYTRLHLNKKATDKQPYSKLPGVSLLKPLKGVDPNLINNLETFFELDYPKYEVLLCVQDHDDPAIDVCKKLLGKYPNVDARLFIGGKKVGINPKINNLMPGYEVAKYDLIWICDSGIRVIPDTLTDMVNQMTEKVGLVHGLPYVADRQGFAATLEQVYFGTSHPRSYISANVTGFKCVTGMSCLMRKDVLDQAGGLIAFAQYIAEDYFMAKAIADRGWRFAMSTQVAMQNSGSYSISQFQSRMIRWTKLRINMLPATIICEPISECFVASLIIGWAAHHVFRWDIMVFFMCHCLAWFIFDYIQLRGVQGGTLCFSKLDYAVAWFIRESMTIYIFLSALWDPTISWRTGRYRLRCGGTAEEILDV
Experiment: GCS activity, broken cell (MDCK cell homogenate) assay
READOUT KIND: IC50 (nM)

molecule="O=C(N[C@H](CN1CCCC1)[C@H](O)c1ccc2c(c1)OCCO2)OCc1ccccc1 [Compound 3b]" assay_system="glucosylceramide synthase (GCS) (Canis lupus familiaris)" reported_result=144
molecule="CN(C(=O)CCc1ccccc1)[C@H](CN1CCCC1)[C@H](O)c1ccc2c(c1)OCCO2 [Compound 3j]" assay_system="glucosylceramide synthase (GCS) (Canis lupus familiaris)" reported_result=158
molecule="O=C(N[C@H](CN1CCCC1)[C@H](O)c1ccc2c(c1)OCCO2)C1Cc2ccccc2C1 [Compound 3i]" assay_system="glucosylceramide synthase (GCS) (Canis lupus familiaris)" reported_result=107
molecule="O=C(CCc1ccccc1)N[C@H](CN1CCCC1)[C@H](O)c1ccc2c(c1)OCCO2 [Compound 3c]" assay_system="glucosylceramide synthase (GCS) (Canis lupus familiaris)" reported_result=134
molecule="O=C(/C=C/c1ccccc1)N[C@H](CN1CCCC1)[C@H](O)c1ccc2c(c1)OCCO2 [Compound 3f]" assay_system="glucosylceramide synthase (GCS) (Canis lupus familiaris)" reported_result=379

(a) O=C(CCCc1ccccc1)N[C@H](CN1CCCC1)[C@H](O)c1ccc2c(c1)OCCO2 [Compound 3e]
(b) CCCCCCCC(=O)N[C@H](CN1CCCC1)[C@H](O)c1ccc2c(c1)OCCO2 [Compound 3a, reference compound]
Qu. I'd appreciate it if you could identify which of a and b has the greater IC50. API: response body contains the label of the selected item.
Ans. b
